Target: rat mGlu5 (Rattus norvegicus (Rat))
Assay: mGlu5 Ca2+ flux assay
Format: cell-based
Conditions: read-out: rat mGlu5 EC50 or IC50

{"smiles_notation": "COc1cccc(N(C)Cc2cc3n(n2)CCN(c2ccc(F)cc2)C3=O)c1", "EC50": "> 30 µM"}
{"smiles_notation": "COc1ccc(N(C)Cc2cc3n(n2)CCN(c2cccc(F)c2)C3=O)cc1", "EC50": "> 30 µM"}
{"smiles_notation": "COc1ccc(N(C)Cc2cc3n(n2)CCN(c2cccnc2)C3=O)cc1", "EC50": "> 30 µM"}
{"smiles_notation": "O=C1c2cc(CNc3ccc4c(c3)OC(F)(F)O4)nn2CCN1c1ccc(F)cc1", "EC50": "> 10 µM"}

###

Here the recorded EC50 is given for each entry.
Target: UniProtKB P31424
Experiment: mGlu5 Ca2+ flux assay
Type: cell-based
Conditions: read-out: rat mGlu5 EC50 or IC50

{"smiles_notation": "C[C@@H]1CN(c2ccc(F)cc2)C(=O)c2cc(CNc3ccc(F)cc3F)nn21", "system_tested": "UniProtKB P31424", "result_operator": "=", "EC50 (µM)": 5.83}
{"smiles_notation": "O=C1c2cc(CNc3cccc(Cl)c3)nn2CCN1c1ccc(F)cc1", "system_tested": "UniProtKB P31424", "result_operator": "=", "EC50 (µM)": 3.32}
{"smiles_notation": "O=C1c2cc(CNc3ccc(OC(F)F)cc3F)nn2CCN1c1ncccc1F", "system_tested": "UniProtKB P31424", "result_operator": ">", "EC50 (µM)": 30}
{"smiles_notation": "C[C@H]1CN(c2ccc(F)cc2)C(=O)c2cc(CNc3c(F)cc(F)cc3F)nn21", "system_tested": "UniProtKB P31424", "result_operator": "=", "EC50 (µM)": 7.75}
{"smiles_notation": "O=C1c2cc(CNc3ncccc3C(F)(F)F)nn2CCN1c1ccc(F)cc1", "system_tested": "UniProtKB P31424", "result_operator": ">", "EC50 (µM)": 30}

###

Biological target: rat mGlu5 (Rattus norvegicus (Rat), UniProt P31424)
Sequence (P31424 21-1203): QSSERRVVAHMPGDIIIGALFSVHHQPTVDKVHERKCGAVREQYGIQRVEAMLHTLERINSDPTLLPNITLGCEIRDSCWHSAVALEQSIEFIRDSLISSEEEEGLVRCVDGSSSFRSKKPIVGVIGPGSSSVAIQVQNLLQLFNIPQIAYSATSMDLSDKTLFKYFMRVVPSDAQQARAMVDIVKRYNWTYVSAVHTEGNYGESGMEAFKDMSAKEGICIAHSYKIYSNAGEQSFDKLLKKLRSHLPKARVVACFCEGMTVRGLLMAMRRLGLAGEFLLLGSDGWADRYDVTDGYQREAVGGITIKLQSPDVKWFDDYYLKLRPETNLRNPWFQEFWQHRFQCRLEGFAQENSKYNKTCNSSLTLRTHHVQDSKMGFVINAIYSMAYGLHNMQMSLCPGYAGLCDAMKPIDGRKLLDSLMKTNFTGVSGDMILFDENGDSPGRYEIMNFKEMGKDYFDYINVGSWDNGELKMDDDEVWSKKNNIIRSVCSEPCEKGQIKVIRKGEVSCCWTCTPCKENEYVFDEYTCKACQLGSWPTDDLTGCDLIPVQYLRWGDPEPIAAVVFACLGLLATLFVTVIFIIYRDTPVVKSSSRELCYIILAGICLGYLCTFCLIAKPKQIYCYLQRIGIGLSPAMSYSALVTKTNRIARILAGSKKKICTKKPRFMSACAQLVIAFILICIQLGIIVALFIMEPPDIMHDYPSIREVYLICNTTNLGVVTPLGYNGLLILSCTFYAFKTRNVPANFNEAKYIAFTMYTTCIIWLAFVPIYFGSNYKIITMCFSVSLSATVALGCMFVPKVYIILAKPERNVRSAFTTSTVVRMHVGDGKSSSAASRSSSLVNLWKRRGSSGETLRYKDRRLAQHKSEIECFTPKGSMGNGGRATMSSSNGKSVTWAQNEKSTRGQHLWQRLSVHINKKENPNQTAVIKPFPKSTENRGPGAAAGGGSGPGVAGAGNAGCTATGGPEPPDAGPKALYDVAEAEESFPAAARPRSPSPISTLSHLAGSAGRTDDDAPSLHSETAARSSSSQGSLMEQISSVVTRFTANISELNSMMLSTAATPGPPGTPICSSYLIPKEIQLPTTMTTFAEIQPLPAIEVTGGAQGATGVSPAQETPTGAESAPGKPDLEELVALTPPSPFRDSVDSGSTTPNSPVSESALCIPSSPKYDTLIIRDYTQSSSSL
Test: mGlu5 Ca2+ flux assay
Type: cell-based
Conditions: read-out: rat mGlu5 EC50 or IC50
observation_type: EC50

{"molecule": "COc1ccc(N(C)Cc2cc3n(n2)CCN(c2csc(C)n2)C3=O)cc1 [Compound 115]", "observation_type": "EC50", "data_value": "> 30 µM"}
{"molecule": "COc1ccc(NCc2cc3n(n2)CCN(c2ccc(Cl)cc2)C3=O)cc1 [Compound 81]", "observation_type": "EC50", "data_value": "> 30 µM"}
{"molecule": "COc1cc(F)cc(N2CCn3nc(CNc4ccc(OC(F)F)cc4F)cc3C2=O)c1 [Compound 147]", "observation_type": "EC50", "data_value": "> 30 µM"}
{"molecule": "Cc1ccc(NCc2cc3n(n2)[C@@H](C)CN(c2ccc(F)cc2)C3=O)cc1 [Compound 59]", "observation_type": "EC50", "data_value": "> 10 µM"}
{"molecule": "O=C1c2cc(CNc3ccc(OC(F)F)cc3F)nn2CCN1c1cc(F)cc(F)c1 [Compound 152]", "observation_type": "EC50", "data_value": "> 30 µM"}

###

Here the recorded remaining activity at 30 µM is given for each entry.
Target: rat mGlu3 (Rattus norvegicus (Rat), UniProt P31422)
Sequence (P31422 23-879): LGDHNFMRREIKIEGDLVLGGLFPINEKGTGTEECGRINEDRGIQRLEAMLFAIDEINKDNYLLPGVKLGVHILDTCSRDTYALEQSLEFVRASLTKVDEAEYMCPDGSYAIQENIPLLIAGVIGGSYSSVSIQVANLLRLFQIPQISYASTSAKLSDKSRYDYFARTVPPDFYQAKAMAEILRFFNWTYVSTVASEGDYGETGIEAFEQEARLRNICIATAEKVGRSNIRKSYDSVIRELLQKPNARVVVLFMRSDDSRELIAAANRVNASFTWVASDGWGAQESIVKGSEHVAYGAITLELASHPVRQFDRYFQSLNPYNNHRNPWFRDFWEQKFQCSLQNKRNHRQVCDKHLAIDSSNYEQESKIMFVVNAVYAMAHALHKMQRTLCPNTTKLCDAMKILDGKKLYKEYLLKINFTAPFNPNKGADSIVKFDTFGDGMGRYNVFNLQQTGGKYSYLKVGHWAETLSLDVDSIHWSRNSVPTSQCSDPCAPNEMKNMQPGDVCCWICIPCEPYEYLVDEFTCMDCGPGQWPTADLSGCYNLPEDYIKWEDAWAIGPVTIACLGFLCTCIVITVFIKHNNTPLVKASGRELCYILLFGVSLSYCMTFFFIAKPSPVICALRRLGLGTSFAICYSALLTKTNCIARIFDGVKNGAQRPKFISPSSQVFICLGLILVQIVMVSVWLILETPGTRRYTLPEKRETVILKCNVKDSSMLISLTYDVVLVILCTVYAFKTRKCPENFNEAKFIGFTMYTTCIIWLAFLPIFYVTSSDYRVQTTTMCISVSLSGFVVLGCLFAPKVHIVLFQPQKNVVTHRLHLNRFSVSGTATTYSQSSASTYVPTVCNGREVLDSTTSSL
Test: mGlu3 Ca2+ flux assay
Assay type: cell-based
Conditions: amplitude of response at 30 μM test compound as % of maximal response to glutamate; read-out: rat mGlu3 Glu max (%)
Procedure: The cells were grown overnight at 37° C. in the presence of 5% CO2. […] Dye was removed, 20 μL of assay buffer was added, and the plate was incubated for 10 minutes at room temperature. Ca^2+ flux was measured using the Functional Drug Screening System (FDSS7000, Hamamatsu, Japan). […] Calcium fluorescence measures were recorded as fold over basal fluorescence; raw data was then normalized to the maximal response to glutamate. […]

{"smiles_notation": "O=C1c2cc(CNc3cccc(Cl)c3)nn2CCN1c1ccc(F)cc1", "quantity_unit": "%", "remaining activity at 30 µM": 2.95}
{"smiles_notation": "COc1ccc(N(C)Cc2cc3n(n2)CCN(c2ccc(C#N)cc2)C3=O)cc1", "quantity_unit": "%", "remaining activity at 30 µM": 1.63}
{"smiles_notation": "C[C@H]1CN(c2ccc(F)cc2)C(=O)c2cc(CNc3ccccc3F)nn21", "quantity_unit": "%", "remaining activity at 30 µM": 1.61}

###

Here the recorded pIC50 is given for each entry.
Target: rat mGlu3 (Rattus norvegicus (Rat), UniProt P31422)
Assay: mGlu3 Ca2+ flux assay
Format: cell-based
Settings: NAM potency, decrease of glutamate EC80 response; >30,000 = no measurable activity; >10,000 = no plateau; read-out: rat mGlu3 IC50
pIC50: −log10 of the molar value.

{"smiles_notation": "Cc1cc(NCc2cc3n(n2)CCN(c2ccc(F)cc2)C3=O)ccc1F", "pIC50": 5.78}
{"smiles_notation": "COc1ccc(N(C)Cc2cc3n(n2)CCN(c2ccc(C)cc2)C3=O)cc1", "pIC50": 6.17}
{"smiles_notation": "O=C1c2cc(CNc3cc(Cl)ccn3)nn2CCN1c1ccc(F)cc1", "pIC50": 5.88}
{"smiles_notation": "Cc1ccc(NCc2cc3n(n2)CCN(c2ccc(F)cc2)C3=O)cc1", "pIC50": 5.81}
{"smiles_notation": "Cc1cccc(NCc2cc3n(n2)CCN(c2ccc(F)cc2)C3=O)n1", "pIC50": 5.49}
{"smiles_notation": "COc1ccc(N(C)Cc2cc3n(n2)CCN(c2cccc(Cl)c2F)C3=O)cc1", "pIC50": 5.92}
{"smiles_notation": "C[C@H]1CN(c2ccc(F)cc2)C(=O)c2cc(CNc3ccc(F)cc3)nn21", "pIC50": 5.63}

###

Molecular target: rat mGlu3 (Rattus norvegicus (Rat))
Assay: mGlu3 Ca2+ flux assay
Assay type: cell-based
Settings: amplitude of response at 30 μM test compound as % of maximal response to glutamate; read-out: rat mGlu3 Glu max (%)

{"compound": "COc1ccc(NCc2cc3n(n2)[C@@H](C)CN(c2ccc(F)cc2)C3=O)cc1 [Compound 63]", "remaining activity at 30 µM (%)": -0.6}
{"compound": "O=C1c2cc(CNc3ccccc3)nn2CCN1c1ccc(F)cc1 [Compound 2]", "remaining activity at 30 µM (%)": 1.99}
{"compound": "O=C1c2cc(CNc3ccc(OC(F)F)cc3)nn2CCN1c1ccc(F)cc1 [Compound 20]", "remaining activity at 30 µM (%)": 2.9}
{"compound": "Cc1cccc(NCc2cc3n(n2)[C@@H](C)CN(c2ccc(F)cc2)C3=O)c1 [Compound 51]", "remaining activity at 30 µM (%)": 3.21}
{"compound": "COc1ccc(NCc2cc3n(n2)CCN(c2ccc(Cl)cc2)C3=O)cc1 [Compound 81]", "remaining activity at 30 µM (%)": 15.4}
{"compound": "COc1ccc(N(C)Cc2cc3n(n2)CCN(c2ccc(F)cn2)C3=O)cc1 [Compound 122]", "remaining activity at 30 µM (%)": 1.4}
{"compound": "COc1ccc(N(C)Cc2cc3n(n2)CCN(c2ccc(C)cc2F)C3=O)cc1 [Compound 108]", "remaining activity at 30 µM (%)": 0.97}
{"compound": "O=C1c2cc(CNc3ncccc3C(F)(F)F)nn2CCN1c1ccc(F)cc1 [Compound 162]", "remaining activity at 30 µM (%)": 0.79}
{"compound": "C[C@@H]1CN(c2ccc(F)cc2)C(=O)c2cc(CNc3ccc(CC#N)cc3)nn21 [Compound 66]", "remaining activity at 30 µM (%)": 0.95}

###

Biological target: rat mGlu5 (Rattus norvegicus (Rat), UniProt P31424)
Test: mGlu5 Ca2+ flux assay
Type: cell-based
Settings: read-out: rat mGlu5 EC50 or IC50
pEC50: −log10 of the molar value.
Here the recorded pEC50 is given for each entry.

{"compound": "Cc1ccccc1NCc1cc2n(n1)[C@H](C)CN(c1ccc(F)cc1)C2=O [Compound 44]", "pEC50": "< 5.00"}
{"compound": "Cc1cccc(NCc2cc3n(n2)CCN(c2ccc(F)cc2)C3=O)n1 [Compound 157]", "pEC50": "< 4.52"}
{"compound": "CS(=O)(=O)c1ccc(NCc2cc3n(n2)CCN(c2ccc(F)cc2)C3=O)cc1 [Compound 25]", "pEC50": "< 4.52"}

###

Target: rat mGlu5 (Rattus norvegicus (Rat), UniProt P31424)
Assay: mGlu5 Ca2+ flux assay
Format: cell-based
Details: ratio of rat mGlu5 EC50 or IC50 to rat mGlu3 IC50
Here the recorded Fold selectivity (mGlu3 vs. mGlu5) is given for each entry.
observation_type: Fold selectivity (mGlu3 vs. mGlu5)

{"smiles_notation": "COc1ccc(N(C)Cc2cc3n(n2)CCN(c2cc(F)ccc2F)C3=O)cc1", "system_tested": "rat mGlu5 (Rattus norvegicus (Rat), UniProt P31424)", "observation_type": "Fold selectivity (mGlu3 vs. mGlu5)", "data_value": ">29"}
{"smiles_notation": "O=C1c2cc(CNc3ccc(F)cc3)nn2CCN1c1ccc(F)cc1", "system_tested": "rat mGlu5 (Rattus norvegicus (Rat), UniProt P31424)", "observation_type": "Fold selectivity (mGlu3 vs. mGlu5)", "data_value": 2.83}
{"smiles_notation": "O=C1c2cc(CNc3ccccc3Cl)nn2CCN1c1ccc(F)cc1", "system_tested": "rat mGlu5 (Rattus norvegicus (Rat), UniProt P31424)", "observation_type": "Fold selectivity (mGlu3 vs. mGlu5)", "data_value": 1.72}
{"smiles_notation": "C[C@H]1CN(c2ccc(F)cc2)C(=O)c2cc(CNc3ccc(OC(F)F)cc3)nn21", "system_tested": "rat mGlu5 (Rattus norvegicus (Rat), UniProt P31424)", "observation_type": "Fold selectivity (mGlu3 vs. mGlu5)", "data_value": ">22"}
{"smiles_notation": "O=C1c2cc(CNc3ccc(Cl)cn3)nn2CCN1c1ccc(F)cc1", "system_tested": "rat mGlu5 (Rattus norvegicus (Rat), UniProt P31424)", "observation_type": "Fold selectivity (mGlu3 vs. mGlu5)", "data_value": 4.02}
{"smiles_notation": "O=C1c2cc(CNc3ccc(F)c(F)c3)nn2CCN1c1ccc(F)cc1", "system_tested": "rat mGlu5 (Rattus norvegicus (Rat), UniProt P31424)", "observation_type": "Fold selectivity (mGlu3 vs. mGlu5)", "data_value": 5.37}
